System: C57BL/6 mice, intracerebral ependymoblastoma, median survival T/C
Assay: NCI In Vivo Anticancer Drug Screen. Data for tumor model Ependymoblastoma (intracerebral) in C57BL/6 mice
Details: endpoint: median survival time; dose: 512.0 mg/kg/injection; schedule: Q01DX005 (ip); vehicle: saline with Tween-80; higher = longer survival
Toxic doses and inconclusive results are not listed.

MOLECULE | T/C
O=c1cc[nH]c(=O)[nH]1 | 104 % of control
Cc1c[nH]c(=O)[nH]c1=O | 88 % of control
Nc1ccnc(=O)[nH]1 | 87 % of control
Cc1cn(C2CC(O)C(CO)O2)c(=O)[nH]c1=O (centres undefined) | 100 % of control

---

System: C57BL/6 mice, intracerebral ependymoblastoma, median survival T/C
Assay: NCI In Vivo Anticancer Drug Screen. Data for tumor model Ependymoblastoma (intracerebral) in C57BL/6 mice
Conditions: endpoint: median survival time; dose: 128.0 mg/kg/injection; schedule: Q01DX005 (ip); vehicle: saline with Tween-80; higher = longer survival
Inconclusive results and toxic doses are left out.
As shown below, each of these compounds has a reported T/C value.
RECORDED_METRIC: T/C

COMPOUND | TEST_VALUE
O=C(N/N=C\c1cc(Br)cc(Br)c1O)N/N=C/c1cc(Br)cc(Br)c1O | 88 % of control
Nc1ccnc(=O)[nH]1 | 90 % of control
CCN(CC)CCCC(C)Nc1c2ccc(Cl)cc2nc2ccc(OC)cc12 (stereo unspecified) | 94 % of control
O=c1cc[nH]c(=O)[nH]1 | 98 % of control
Cc1c[nH]c(=O)[nH]c1=O | 102 % of control
Nc1ncnc2nc[nH]c12 | 92 % of control

---

Test system: C57BL/6 mice, intracerebral ependymoblastoma, median survival T/C
Experiment: NCI In Vivo Anticancer Drug Screen. Data for tumor model Ependymoblastoma (intracerebral) in C57BL/6 mice
Conditions: endpoint: median survival time; dose: 8.0 mg/kg/injection; schedule: Q01DX005 (ip); vehicle: Klucel (hydroxypropylcellulose) (HPC); higher = longer survival
Toxic doses and inconclusive results are not listed.

COMPOUND | TESTED_SYSTEM | T/C
COc1cc(NS(C)(=O)=O)ccc1Nc1c2ccccc2nc2ccccc12 | C57BL/6 mice, intracerebral ependymoblastoma, median survival T/C | 116 % of control
O=NN(CCCl)C(=O)NC1CCC(=O)NC1=O (stereo unspecified) | C57BL/6 mice, intracerebral ependymoblastoma, median survival T/C | 281 % of control
O=C(NP(=O)(N1CC1)N1CC1)c1cc(I)ccc1I | C57BL/6 mice, intracerebral ependymoblastoma, median survival T/C | 106 % of control
C[n+]1ccc(Nc2ccc(NC(=O)c3ccc(Nc4cc[n+](C)c5ccc(N)cc45)cc3)cc2)cc1 | C57BL/6 mice, intracerebral ependymoblastoma, median survival T/C | 113 % of control
CCOC(=O)CNC(=O)CCCCSc1ncnc2nc[nH]c12 | C57BL/6 mice, intracerebral ependymoblastoma, median survival T/C | 104 % of control
Clc1ccc(C(c2ccc(Cl)cc2)C(Cl)(Cl)Cl)cc1 | C57BL/6 mice, intracerebral ependymoblastoma, median survival T/C | 92 % of control

---

As shown below, each of these compounds has a reported T/C value.
System: C57BL/6 mice, intracerebral ependymoblastoma, median survival T/C
Experiment: NCI In Vivo Anticancer Drug Screen. Data for tumor model Ependymoblastoma (intracerebral) in C57BL/6 mice
Conditions: endpoint: median survival time; dose: 0.12 mg/kg/injection; schedule: Q01DX005 (ip); vehicle: saline; higher = longer survival
Toxic doses and inconclusive results are not listed.

COMPOUND | TESTED_SYSTEM | T/C
Cc1c2cc[n+](C)cc2c(C)c2c1[nH]c1ccc(O)cc12 | C57BL/6 mice, intracerebral ependymoblastoma, median survival T/C | 100 % of control
C1CN1c1nc(N2CC2)nc(N2CC2)n1 | C57BL/6 mice, intracerebral ependymoblastoma, median survival T/C | 111 % of control
COc1cc([C@@H]2c3cc4c(cc3[C@@H](OC3OC5CO[C@@H](c6cccs6)OC5C(O)C3O)[C@H]3COC(=O)[C@H]23)OCO4)cc(OC)c1O (some centres undefined) | C57BL/6 mice, intracerebral ependymoblastoma, median survival T/C | 95 % of control
CN(C)CCCNc1c2ccccc2nc2cccc([N+](=O)[O-])c12 | C57BL/6 mice, intracerebral ependymoblastoma, median survival T/C | 98 % of control

---

System: C57BL/6 mice, intracerebral ependymoblastoma, median survival T/C
Test: NCI In Vivo Anticancer Drug Screen. Data for tumor model Ependymoblastoma (intracerebral) in C57BL/6 mice
Details: endpoint: median survival time; dose: 0.05 mg/kg/injection; schedule: Q01DX005 (ip); vehicle: saline; higher = longer survival
Toxic doses and inconclusive results are not listed.
RECORDED_METRIC: T/C

MOLECULE | TEST_VALUE
CC[C@]1(O)C[C@H]2CN(CCc3c([nH]c4ccccc34)[C@@](C(=O)OC)(c3cc4c(cc3OC)N(C=O)[C@H]3[C@@](O)(C(=O)OC)[C@H](OC(C)=O)[C@]5(CC)C=CCN6CC[C@]43[C@@H]65)C2)C1 | 108 % of control
CC[C@]12CN3CCc4c([nH]c5ccccc45)[C@@](C(=O)OC)(c4cc5c(cc4OC)N(C)[C@H]4[C@@](O)(C(=O)OC)[C@H](OC(C)=O)[C@]6(CC)C=CCN7CC[C@]54[C@@H]76)CC(C3)[C@H]1O2 (some centres not stated) | 94 % of control
CCC1=C[C@H]2CN(CCc3c([nH]c4ccccc34)[C@@](C(=O)OC)(c3cc4c(cc3OC)N(C)[C@H]3[C@@](O)(C(=O)OC)[C@H](OC(C)=O)[C@]5(CC)C=CCN6CC[C@]43[C@@H]65)C2)C1 | 100 % of control
CCC1CC2CC(c3cc4c(cc3OC)N(C)C3C(O)(C(=O)OC)C(OC(C)=O)C5(CC)C=CCN6CCC43C65)c3[nH]c4ccccc4c3CCN(C1)C2 (configuration not stated) | 108 % of control
COc1cc2c(c(OC)c1OC)-c1ccc(OC)c(=O)cc1[C@@H](NC(C)=O)CC2 | 104 % of control
[N-]=[N+]=CC(=O)CCC(N)C(=O)O (configuration not stated) | 101 % of control
CCC1(O)CC2CN(CCc3c([nH]c4ccccc34)C(C(=O)OC)(c3cc4c(cc3OC)N(C)C3C(O)(C(=O)NCCO)C(O)C5(CC)C=CCN6CCC43C65)C2)C1 (configuration not stated) | 108 % of control

---

Test system: C57BL/6 mice, intracerebral ependymoblastoma, median survival T/C
Assay: NCI In Vivo Anticancer Drug Screen. Data for tumor model Ependymoblastoma (intracerebral) in C57BL/6 mice
Details: endpoint: median survival time; dose: 128.0 mg/kg/injection; schedule: Q01DX001 (oral); vehicle: Klucel (hydroxypropylcellulose) (HPC); higher = longer survival
Inconclusive results and toxic doses are left out.

MOLECULE | TESTED_SYSTEM | T/C
O=NN(CCCl)C(=O)NC1CCC(=O)NC1=O (centres undefined) | C57BL/6 mice, intracerebral ependymoblastoma, median survival T/C | 102 % of control
O=NN(CCCl)C(=O)NC1CCCCC1 | C57BL/6 mice, intracerebral ependymoblastoma, median survival T/C | 100 % of control
OC(CBr)C(O)C(O)C(O)CBr (centres undefined) | C57BL/6 mice, intracerebral ependymoblastoma, median survival T/C | 100 % of control
CC1CCC(NC(=O)N(CCCl)N=O)CC1 (centres undefined) | C57BL/6 mice, intracerebral ependymoblastoma, median survival T/C | 102 % of control

---

Test system: C57BL/6 mice, intracerebral ependymoblastoma, median survival T/C
Experiment: NCI In Vivo Anticancer Drug Screen. Data for tumor model Ependymoblastoma (intracerebral) in C57BL/6 mice
Details: endpoint: median survival time; dose: 256.0 mg/kg/injection; schedule: Q01DX001 (ip); vehicle: Klucel (hydroxypropylcellulose) (HPC); higher = longer survival
Inconclusive results and toxic doses are left out.
As shown below, each of these compounds has a reported T/C value.

COMPOUND | TESTED_SYSTEM | T/C
OC(CBr)C(O)C(O)C(O)CBr (centres undefined) | C57BL/6 mice, intracerebral ependymoblastoma, median survival T/C | 122 % of control
CCC(=O)O[C@H]1CC[C@H]2[C@@H]3[C@@H](C)CC4=CC(=O)CC[C@]4(C)[C@H]3CC[C@]12C | C57BL/6 mice, intracerebral ependymoblastoma, median survival T/C | 93 % of control
O=NN(CCCl)C(=O)NC1CCCCC1 | C57BL/6 mice, intracerebral ependymoblastoma, median survival T/C | 108 % of control
O=C1c2ccccc2C(=O)c2c(NCCNCCO)ccc(NCCNCCO)c21 | C57BL/6 mice, intracerebral ependymoblastoma, median survival T/C | 104 % of control

---

Test system: C57BL/6 mice, intracerebral ependymoblastoma, median survival T/C
Assay: NCI In Vivo Anticancer Drug Screen. Data for tumor model Ependymoblastoma (intracerebral) in C57BL/6 mice
Conditions: endpoint: median survival time; dose: 32.0 mg/kg/injection; schedule: Q01DX005 (ip); vehicle: Klucel (hydroxypropylcellulose) (HPC); higher = longer survival
Toxic doses and inconclusive results are not listed.
As shown below, each of these molecules has a reported T/C value.
RECORDED_METRIC: T/C

MOLECULE | TESTED_SYSTEM | TEST_VALUE
O=C(NP(=O)(N1CC1)N1CC1)c1cc(I)ccc1I | C57BL/6 mice, intracerebral ependymoblastoma, median survival T/C | 120 % of control
COc1cc2cc3c4cc(OC)c(OC)cc4cc[n+]3c(C)c2cc1OC (tested in a mixture with another compound) | C57BL/6 mice, intracerebral ependymoblastoma, median survival T/C | 89 % of control
O=c1cc[nH]c(=O)[nH]1 | C57BL/6 mice, intracerebral ependymoblastoma, median survival T/C | 98 % of control
NC(CSC(c1ccccc1)(c1ccccc1)c1ccccc1)C(=O)O (centres undefined) | C57BL/6 mice, intracerebral ependymoblastoma, median survival T/C | 99 % of control
CC(C)=CCC1=C(O)c2ccccc2C(=O)C1=O | C57BL/6 mice, intracerebral ependymoblastoma, median survival T/C | 100 % of control
CC(CN1CC(=O)NC(=O)C1)N1CC(=O)NC(=O)C1 (centres undefined) | C57BL/6 mice, intracerebral ependymoblastoma, median survival T/C | 105 % of control
Clc1ccc(C(c2ccc(Cl)cc2)C(Cl)(Cl)Cl)cc1 | C57BL/6 mice, intracerebral ependymoblastoma, median survival T/C | 96 % of control
Cc1c[nH]c(=O)[nH]c1=O | C57BL/6 mice, intracerebral ependymoblastoma, median survival T/C | 99 % of control
CCC(=O)O[C@H]1CC[C@H]2[C@@H]3[C@@H](C)CC4=CC(=O)CC[C@]4(C)[C@H]3CC[C@]12C | C57BL/6 mice, intracerebral ependymoblastoma, median survival T/C | 104 % of control
